# maps each entry to its RLM + NADPH (% remaining at 45 min)
Test protocol: Liver microsome stability assay (RLM)
Assay type: in vitro ADME
Protocol conditions: rat liver microsomes
Recorded metric: RLM + NADPH (% remaining at 45 min) (%)

compound="COc1ccc(-n2cc(C)c3cc(C(=O)N4CCC(F)CC4)ccc32)cc1 [MF-DH-190]" quantitative_readout=29
compound="O=C(c1cnc2c(c1)ncn2-c1ccc(OC(F)(F)F)cc1)N1CCC(F)CC1 [MF-DH-218]" quantitative_readout=34
compound="O=C(c1cnc2c(c1)ncn2-c1cccc(OC(F)F)c1)N1CCC(F)CC1 [MF-DH-228]" quantitative_readout=69
compound="COc1ccc(-n2ccc3cc(C(=O)N4CCC(F)CC4)ccc32)cc1 [MF-DH-189]" quantitative_readout=23
compound="COCCc1nc2cc(C(=O)N3CCCCC3)cnc2n1-c1ccc(OC)cc1 [MF-DH-267]" quantitative_readout=67
compound="O=C(c1cnc2c(c1)ncn2-c1ccc(F)c(F)c1)N1CCC(F)CC1 [MF-DH-216]" quantitative_readout=64
compound="O=C(c1cnc2c(c1)ncn2-c1cccc(OC(F)F)c1)N1CCCCC1 [MF-DH-229]" quantitative_readout=39
compound="O=C(c1cnc2c(c1)ncn2-c1ccc(F)cc1)N1CCC(F)CC1 [MF-DH-214]" quantitative_readout=60

FYI, the data here is from patent US11345702B1.
